Entry source: PubChem BioAssay (NCI)

Tested on: MDA-MB-468 breast
test: NCI tumour cell line growth inhibition, 48 h
The entries below are paired with their reported GI50.

Challenge: Find GI50 (MDA-MB-468 breast) for the entry COc1cccc(C2C(C#N)=C(N)Oc3cc(OC)ccc32)c1 (configuration not stated)
Response given: 32.2 nM

Challenge: Find GI50 (MDA-MB-468 breast) for the entry COC1CCC(n2c([C@@H]3CCCC(=O)N3c3ccc(F)c(F)c3)nc3cc(-c4c(C)noc4C)ccc32)CC1 (some centres not stated)
Response given: 3950 nM

Challenge: Find GI50 (MDA-MB-468 breast) for the entry Nc1nc(Nc2ccc3c(c2)CCC(N2CCCC2)CC3)nn1-c1cc2c(nn1)-c1ccccc1CCC2 (configuration not stated)
Response given: 1400 nM

Challenge: Find GI50 (MDA-MB-468 breast) for the entry `c1ccc2c(c1)ccc1c3ccccc3ccc21`
Response given: 8590 nM

Challenge: Find GI50 (MDA-MB-468 breast) for the entry `CC(C)(C)c1ccc(C(=O)Nc2sc3c(c2C(N)=O)CC/C(=N\O)C3)cc1`
Response given: 3060 nM

Lab note: next molecule to report on.
Challenge: Find GI50 (MDA-MB-468 breast) for the entry `COc1cc(/C=C/C(=O)c2cc(OC)c(OC)c(OC)c2)cc(OC)c1OC`
Response given: 3070 nM

* * *

System: SW-620 colon
test: NCI tumour cell line growth inhibition, 48 h
The entries below are paired with their reported GI50.

Worked examples follow.
Challenge: State the recorded GI50 for this entry: CC1(C)CC[C@]2(C(=O)O)CC[C@]3(C)C(=CCC4[C@@]5(C)C[C@@H](O)[C@@H]6OC(c7ccccc7F)OC[C@@]6(C)C5CC[C@]43C)C2C1 (some centres undefined)
Response given: 4.34 µM

Challenge: State the recorded GI50 for this entry: `CN(C)c1ccc(/C=C/c2n(Cc3ccc4ccccc4c3)c3ccccc3[n+]2Cc2ccc3ccccc3c2)cc1`
Response given: 0.319 µM

Challenge: State the recorded GI50 for this entry: `CS(=O)(=O)Nc1ccc(-c2ccc3c(c2)ncn3-c2ccc(NC(=O)Nc3ccc(Br)cc3)cc2)cc1`
Response given: 3.05 µM

Lab note: next molecule to report on.
Challenge: State the recorded GI50 for this entry: `CCCSc1nc(Nc2ccc(S(N)(=O)=O)cc2)c(C#N)c(-c2cc(OC)c(OC)c(OC)c2)n1`
Response given: 8.34 µM

* * *

System: OVCAR-3 ovarian
test: NCI tumour cell line growth inhibition, 48 h; in the data active = GI50 below about 0.43 µM; inactive = the rest
# output must be one of t (active), f (inactive)

Use these answered entries as a reference point.
Challenge: Could you please tell me the result logged for `CCCSc1nc(Nc2ccc(S(N)(=O)=O)cc2)c(C#N)c(-c2cc(OC)c(OC)c(OC)c2)n1` in this assay?
Response given: f

Challenge: Could you please tell me the result logged for `CN(C)c1ccc(/C=C/c2n(Cc3ccc4ccccc4c3)c3ccccc3[n+]2Cc2ccc3ccccc3c2)cc1` in this assay?
Response given: t

Challenge: Could you please tell me the result logged for CC1(C)CC[C@]2(C(=O)O)CC[C@]3(C)C(=CCC4[C@@]5(C)C[C@@H](O)[C@@H]6OC(c7ccccc7F)OC[C@@]6(C)C5CC[C@]43C)C2C1 (some centres undefined) in this assay?
Response given: f

Note: attention shifts to another entry.
Challenge: Could you please tell me the result logged for `CC(C)Sc1nc(NCCc2c[nH]c3ccccc23)c(C#N)c(-c2ccc(F)cc2)n1` in this assay?
Response given: f

* * *

System: COLO 205 colon
test: NCI tumour cell line growth inhibition, 48 h
The entries below are paired with their reported TGI.
Field format: number, assumed µM, no unit text.

Worked examples follow.
Challenge: State the recorded TGI for this entry: `CC(C)Sc1nc(NCCc2c[nH]c3ccccc23)c(C#N)c(-c2ccc(F)cc2)n1`
Response given: 20.7

Challenge: State the recorded TGI for this entry: CC1(C)CC[C@]2(C(=O)O)CC[C@]3(C)C(=CCC4[C@@]5(C)C[C@@H](O)[C@@H]6OC(c7ccccc7F)OC[C@@]6(C)C5CC[C@]43C)C2C1 (some centres undefined)
Response given: 8.52

New cases:
Challenge: State the recorded TGI for this entry: `CN(C)c1ccc(/C=C/c2n(Cc3ccc4ccccc4c3)c3ccccc3[n+]2Cc2ccc3ccccc3c2)cc1`
Response given: 0.434

* * *

System: MDA-MB-468 breast
test: NCI tumour cell line growth inhibition, 48 h
The entries below are paired with their reported TGI.
Field format: number, assumed µM, no unit text.

Worked examples follow.
Challenge: State the recorded TGI for this entry: `CN1CCN(c2cc(Nc3cc(C4CC4)[nH]n3)nc(Nc3ccc(CC(=O)NCc4cccc(F)c4)cc3)n2)CC1`
Response given: 16.7

Challenge: State the recorded TGI for this entry: CC1(C)CC[C@]2(C(=O)O)CC[C@]3(C)C(=CCC4[C@@]5(C)C[C@@H](O)[C@@H]6OC(c7ccccc7F)OC[C@@]6(C)C5CC[C@]43C)C2C1 (stereo partly specified)
Response given: 14

Challenge: State the recorded TGI for this entry: `COc1ccc(-c2[nH]ncc2-c2cc(OC)c(OC)c(OC)c2)cc1`
Response given: 5.56

New cases:
Challenge: State the recorded TGI for this entry: `CC(C)(C)c1ccc(C(=O)Nc2sc3c(c2C(N)=O)CC/C(=N\O)C3)cc1`
Response given: 9.38

Challenge: State the recorded TGI for this entry: `NC(N)=Nc1ccc(Oc2ccc(Nc3ccc(Cl)c(C(F)(F)F)c3)cc2)cc1`
Response given: 3.39

Challenge: State the recorded TGI for this entry: `COc1ccc2sc3c(NCCCNCCO)nc4ccccc4c3c(=O)c2c1`
Response given: 3.41

Challenge: State the recorded TGI for this entry: `CC1(C)CC[C@]2(C(=O)O)CC[C@]3(C)[C@H](CC[C@@H]4[C@@]5(C)CCC(=O)C(C)(C)[C@@H]5CC[C@]43C)[C@H]2[C@H]1OC(=O)C(F)(F)F`
Response given: 21.1

Challenge: State the recorded TGI for this entry: `O=C1C(=O)c2c(nc3ncccn23)-c2ccccc21`
Response given: 0.555

Challenge: State the recorded TGI for this entry: `Oc1ccc(-c2nc3ccc4[nH]ncc4c3c3c2CCCC3)c2cccnc12`
Response given: 2.02

* * *

System: MDA-MB-468 breast
test: NCI tumour cell line growth inhibition, 48 h; in the data active means GI50 below about 0.43 µM; inactive means the rest
# output must be one of active, inactive

Use these answered entries as a reference point.
Challenge: Could you please tell me the result logged for CCC(C)CC(CC)NCCN1CCN(C(CC)CC(C)CC)C1=S (stereo unspecified) in this assay?
Response given: inactive

Challenge: Could you please tell me the result logged for `CC1(C)CC[C@]2(C(=O)O)CC[C@]3(C)[C@H](CC[C@@H]4[C@@]5(C)CCC(=O)C(C)(C)[C@@H]5CC[C@]43C)[C@H]2[C@H]1OC(=O)C(F)(F)F` in this assay?
Response given: inactive

Challenge: Could you please tell me the result logged for `COc1ccc2sc3c(NCCCNCCO)nc4ccccc4c3c(=O)c2c1` in this assay?
Response given: inactive

Challenge: Could you please tell me the result logged for COc1cc(C2c3cc4c(cc3OC(N3CCOCC3)C2C)OCO4)cc(OC)c1OC(C)=O (stereo unspecified) in this assay?
Response given: inactive

Challenge: Could you please tell me the result logged for `O=C1C(=O)c2c(nc3ncccn23)-c2ccccc21` in this assay?
Response given: active

Note: attention shifts to another entry.
Challenge: Could you please tell me the result logged for `CN(C)CCCC(=O)Nc1ccc(Cn2nnc3c2C(=O)c2nnn(Cc4ccc(NC(=O)CCCN(C)C)cc4)c2C3=O)cc1` in this assay?
Response given: inactive
